Measured values drawn from patent US5128362A for this set.

# Test system: alpha 2 receptor
# Protocol text: Radioligand binding, [3H]rauwolscine, rat cerebral cortices
# Recorded conditions: Ki alpha 1/Ki alpha-2
Counter-ions that a name gives are not always drawn.
Recorded endpoint: alpha-2 - Selectivity Ki alpha 1/Ki alpha-2

• Fc1ccc2c(c1)CCCC2CN1CCC(c2cccs2)C1 (stereo not shown) = 45

[A] COc1ccc2c(c1)CCC2CN1CCC(c2cccc(F)c2)C1 (stereo not shown) [Example 153, hydrochloride]
[B] COc1ccc2c(c1)CCCC2CN(C)CCC1CCCS1 (stereo not shown) [Example 6h, hydrochloride]
Lookup: Please state the entry with greater alpha-2 - Selectivity Ki alpha 1/Ki alpha-2 among A and B . Response format: the label of the selected entry.
Found: B

###

# Experimental system: alpha 2 receptor (Rattus norvegicus, UniProt P22909)
# Construct: rat cerebral cortices; from tissue; host or cells: rat cerebral cortices
# Sequence (P22909 whole entry): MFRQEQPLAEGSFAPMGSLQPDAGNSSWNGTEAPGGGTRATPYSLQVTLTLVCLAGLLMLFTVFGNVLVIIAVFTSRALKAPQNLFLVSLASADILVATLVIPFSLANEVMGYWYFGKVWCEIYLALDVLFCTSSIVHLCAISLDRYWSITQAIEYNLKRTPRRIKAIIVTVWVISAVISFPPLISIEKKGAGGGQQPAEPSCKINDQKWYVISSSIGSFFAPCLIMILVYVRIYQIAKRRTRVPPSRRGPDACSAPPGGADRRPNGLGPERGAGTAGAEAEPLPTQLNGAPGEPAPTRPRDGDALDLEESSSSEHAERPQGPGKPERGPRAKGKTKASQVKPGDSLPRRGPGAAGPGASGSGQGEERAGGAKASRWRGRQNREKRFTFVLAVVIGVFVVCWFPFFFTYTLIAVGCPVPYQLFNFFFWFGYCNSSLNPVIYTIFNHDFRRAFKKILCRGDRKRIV
# Protocol text: Radioligand binding, [3H]rauwolscine, rat cerebral cortices
# Recorded conditions: read-out: Ki alpha-2
# Method: The compounds were assessed for alpha-adrenergic receptor subtype selectivity by use of radioligand binding techniques as described previously (DeBernardis et. al. J. Med. Chem. 28, 1398 (1985)).
pKi: −log10 of the molar value. Where a name gives a salt, the structure may show the parent alone.
Recorded endpoint: pKi

Example entries begin here.
• COc1ccc2c(c1)CCCC2CN1CCC(c2ccccc2)C1 (stereo not drawn) [Example 121, hydrochloride] = 9.00
• CN(CCc1ccccc1)CC1CCCc2ccccc21 (stereo not drawn) [Example 88, hydrochloride] = 8.70
• CN(CCc1cccs1)CC1CCCc2cc(Cl)ccc21 (stereo not drawn) [Example 49, hydrochloride] = 8.00
• Nc1ccc2c(c1)CCCC2CN1CCC(c2ccccc2)C1 (stereo not drawn) [Example 156, dihydrochloride] = 8.22
• COc1ccc2c(c1)CCCC2CN(C)CCc1cccc(N)c1 (stereo not drawn) [Example 67, dihydrochloride] = 8.22
• CCN(CCc1cccs1)CC1CCCc2cc(OC)ccc21 (stereo not drawn) [Example 41, hydrochloride] = 8.54
• CCN(CCc1cccs1)CC1CCCc2c1ccc1c2OCO1 (stereo not drawn) [Example 164, hydrochloride] = 8.43
• Cc1cc(O)c(O)c2c1C(CN(C)CCc1cccc(F)c1)CCC2 (stereo not drawn) [Example 34, hydrobromide] = 8.59
• COc1ccc2c(c1)CCC2CN1CCC(c2cccs2)C1 (stereo not drawn) [Example 151, hydrochloride] = 8.60
• Fc1ccccc1C1CCN(CC2CCCc3c2ccc2c3OCO2)C1 (stereo not drawn) [Example 176a] = 9.22

[A] CCCN(CCc1cccs1)CC1CCCc2cc(OC)ccc21 (stereo not drawn) [Example 58, hydrochloride]
[B] COc1ccc2c(c1)CCC2CN(C)CCc1cccs1 (stereo not drawn) [Example 37, hydrochloride]
Lookup: I'm curious, which of these has a smaller pKi number: A or B ? Response format: the label of the selected entry.
Found: A
(A: 7.74, B: 8.43)
